The reported numbers originate from the NIST ThermoML archive (doi:10.1021/je700707y).

For each of the compounds below, state its mass density.
details: 303.15 K; 101.33 kPa; Liquid; Vibrating tube method
Write the number in kg/m3 without appending the unit.

mass density in this record for Cn1cc[n+](C)c1.N#C[S-] [1,3-dimethylimidazolium thiocyanate] : 1154.2

mass density in this record for CCCCn1cc[n+](C)c1.O=S(=O)([O-])C(F)(F)F [1-butyl-3-methylimidazolium trifluoromethanesulfonate] : 1293.4

mass density in this record for CCCCCC[n+]1ccn(C)c1.FC(F)(F)C(F)(F)[P-](F)(F)(F)(C(F)(F)C(F)(F)F)C(F)(F)C(F)(F)F : 1546.4

mass density in this record for CCCCCC[n+]1ccn(C)c1.O=S(=O)([N-]S(=O)(=O)C(F)(F)F)C(F)(F)F : 1366

mass density in this record for CCCCCCCCCCn1cc[n+](C)c1.O=S(=O)([N-]S(=O)(=O)C(F)(F)F)C(F)(F)F : 1273.8

mass density in this record for C[N+]1(CC#N)CCCC1.O=S(=O)([N-]S(=O)(=O)C(F)(F)F)C(F)(F)F : 1533.1

mass density in this record for N#CC[n+]1ccccc1.O=S(=O)([N-]S(=O)(=O)C(F)(F)F)C(F)(F)F : 1626.2

mass density in this record for CCCCCCCCn1cc[n+](C)c1.O=S(=O)([N-]S(=O)(=O)C(F)(F)F)C(F)(F)F : 1315.8

mass density in this record for CCCC[N+]1(C)CCCC1.FC(F)(F)C(F)(F)[P-](F)(F)(F)(C(F)(F)C(F)(F)F)C(F)(F)C(F)(F)F : 1577.3

mass density in this record for CCOS(=O)(=O)[O-].CCn1cc[n+](C)c1 [1-ethyl-3-methylimidazolium ethyl sulfate] : 1235.6

mass density in this record for CCCCCCCCCCCCCC[P+](CCCCCC)(CCCCCC)CCCCCC.O=S(=O)([N-]S(=O)(=O)C(F)(F)F)C(F)(F)F : 1060.3
